Origin of the recorded values: patent US12319739

Quick list: Emax (MFI) per entry.
Molecular target: T1, endogenous cell surface human MSLN (human, UniProt Q13421 296-598)
T1 construct: whole, on cells; The cell line is named under assay; also called cell-surface MSLN on NCI-H226, OVCAR-3 and AsPC-1 cells
T1 sequence (Q13421 other isoform, or with tags, fused parts or gaps limits assumed): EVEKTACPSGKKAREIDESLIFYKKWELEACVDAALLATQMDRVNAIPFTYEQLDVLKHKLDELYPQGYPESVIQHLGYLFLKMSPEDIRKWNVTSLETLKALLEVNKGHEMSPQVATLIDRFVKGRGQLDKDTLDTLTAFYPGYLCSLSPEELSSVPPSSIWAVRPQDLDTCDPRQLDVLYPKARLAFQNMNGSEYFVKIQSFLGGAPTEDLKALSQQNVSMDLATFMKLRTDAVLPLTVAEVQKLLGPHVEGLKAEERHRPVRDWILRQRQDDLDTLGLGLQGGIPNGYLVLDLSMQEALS
Assay: flow cytometry, NCI-H226 cells + 20 nM soluble MSLN
Experimental: To confirm binding to cell surface MSLN, mAb² listed in Table 9 were analysed for binding to endogenous cell surface MSLN on the human lung cancer cell line NCI-H226. In addition, and because MSLN can be found in blood in a shed soluble form, there is a risk that this circulating MSLN might affect exposure and ultimately potency of our mAb². […]
measurement-type: Emax (MFI)

binder: FS22-172-003-AA/FS28-024-060 (bispecific antibody, human IgG1, kappa, L234A L235A, V domains shown, IgG1 mAb^2 with LALA) VH: EVQLLESGGGLVQPGGSLRLSCAASGFTLSYSSMSWVRQAPGKGLEWVSFITPSTGYTHYADSVKGRFTISRDNSKNTLYLQMNSLRAEDTAVYYCARRALWFDYWGQGTLVTVSS VL: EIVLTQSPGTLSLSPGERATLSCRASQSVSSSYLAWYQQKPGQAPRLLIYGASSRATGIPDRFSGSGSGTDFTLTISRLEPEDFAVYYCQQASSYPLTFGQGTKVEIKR
measurement-type: Emax (MFI)
numeric-readout: 930000
//
binder: FS22-172-003-AA/FS28-256-027 (bispecific antibody, human IgG1, kappa, L234A L235A, V domains shown, IgG1 mAb^2 with LALA) VH: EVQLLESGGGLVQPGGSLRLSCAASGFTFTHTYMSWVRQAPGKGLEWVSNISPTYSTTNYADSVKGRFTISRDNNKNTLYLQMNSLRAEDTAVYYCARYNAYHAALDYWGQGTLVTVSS VL: EIVLTQSPGTLSLSPGERATLSCRASQSVSSSYLAWYQQKPGQAPRLLIYGASSRATGIPDRFSGSGSGTDFTLTISRLEPEDFAVYYCQQTVPYPYTFGQGTKVEIKR
measurement-type: Emax (MFI)
numeric-readout: 686000
